Numbers sourced from patent US20210380703A1.

Target: T1, Goat anti-Human Kappa
T1 construct: Positive control; also called biotinylated goat anti-human kappa light chain
Test: ELISA; positive control; note: test concentration or dose not given here
Protocol: The binding of ACVR2A-specific monoclonal antibodies to human ACVR2A, mouse ACVR2A, biotinylated goat anti-human kappa light chain (positive control) and human Fc (negative control) were determined by ELISA.
Documented optical density across a set of binders
Reply with just the number (in OD).

## Input Determine from records and report optical density for 372_F02 (antibody, V domains shown, VH/VL only) VH: EVQLLESGGGLVQPGGSLRLSCAASGFTFSSYGMHWVRQAPGKGLEWVASINYNGGYTSYADSVKGRFTISRDNSKNTLYLQMNSLRAEDTAVYYCARGATWHDTHLDYWGQGTLVTVSS VL: DIQMTQSPSSLSASVGDRVTITCRASQSILTYLNWYQQKPGKAPKLVIYAATSRHSGVPSRFSGSGSGTDFTLTISSLQPEDFATYYCQQSYDLPLTFGGGTKVEIK
## Output 3.69

## Input Determine from records and report optical density for 366_G04 (antibody, V domains shown, VH/VL only) VH: EVQLLESGGGLVQPGGSLRLSCAASGFTFSSYSMNWVRQAPGKGLEWVSGINYNSGYTSYADSVKGRFTISRDNSKNTLYLQMNSLRAEDTAVYYCARSANWHDTALDYWGQGTLVTVSS VL: DIQMTQSPSSLSASVGDRVTITCRASQSIITYLNWYQQKPGKAPKLLIYAATSRASGVPSRFSGSGSGTDFTLTISSLQPEDFATYYCQQSDDTPLTFGGGTKVEIK
## Output 3.29

## Input Determine from records and report optical density for 365_B07 (antibody, V domains shown, VH/VL only) VH: EVQLLESGGGLVQPGGSLRLSCAASGFTFSSYGMHWVRQAPGKGLEWVASINYNSGYTSYADSVKGRFTISRDNSKNTLYLQMNSLRAEDTAVYYCARSANWHDTALDYWGQGTLVTVSS VL: DIQMTQSPSSLSASVGDRVTITCRASQSILTYLNWYQQKPGKAPKLLIYAATSRASGVPSRFSGSGSGTDFTLTISSLQPEDFATYYCQQSYENPLTFGGGTKVEIK
## Output 3.23

## Input Determine from records and report optical density for 366_B12 (antibody, V domains shown, VH/VL only) VH: EVQLLESGGGLVQPGGSLRLSCAASGFTFSSYSMNWVRQAPGKGLEWVAGINYNSGYKGYADSVKGRFTISRDNSKNTLYLQMNSLRAEDTAVYYCARSANWHDTALDYWGQGTLVTVSS VL: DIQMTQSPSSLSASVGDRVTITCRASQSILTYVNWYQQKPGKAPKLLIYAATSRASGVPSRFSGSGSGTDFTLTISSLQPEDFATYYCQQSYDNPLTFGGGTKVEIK
## Output 3.44

## Input Determine from records and report optical density for 365_C10 (antibody, V domains shown, VH/VL only) VH: EVQLLESGGGLVQPGGSLRLSCAASGFTFSSYGMHWVRQAPGKGLEWVASINYNGGYTSYADSVKGRFTISRDNSKNTLYLQMNSLRAEDTAVYYCARSANWHDTALDYWGQGTLVTVSS VL: DIQMTQSPSSLSASVGDRVTITCRASQSILSYVNWYQQKPGKAPKLLIYAATSLASGVPSRFSGSGSGTDFTLTISSLQPEDFATYYCQQSYESPLTFGGGTKVEIK
## Output 3.41
